# ASSAYED TARGET: Recombinant human Syk (GST-Syk kinase fusion protein) (Homo sapiens)
# Construct: made in house
# PROTOCOL TEXT: Syk Kinase Test (Kinase Glo Luminescence Kinase test)
# Type: biochemical
# SETTINGS: 1 μM test substance; negative control (no kinase) = 100% inhibition, positive control (no test substance) = 0% inhibition
MEASURED PARAMETER: % INHB SYK at 1 μM (%)

Some compounds with recorded % INHB SYK at 1 μM:
>  <COMPOUND>
C#Cc1nc(-c2ccc(N3CCOCC3)cc2)cc2ncccc12

>  <% INHB SYK at 1 μM [%]>
70.3

$$$$
>  <COMPOUND>
CCNC(=O)N1CCCC1CNc1nc(-c2ccc(N3CCN(C)CC3)cc2)cc2ncccc12 (centres unmarked)

>  <% INHB SYK at 1 μM [%]>
91.5

$$$$
>  <COMPOUND>
CCNC(=O)NC1CN(c2nc(-c3ccc(N4CCN(C)CC4)cc3)cc3ncccc23)C1

>  <% INHB SYK at 1 μM [%]>
77.3

$$$$
>  <COMPOUND>
CCc1nc(-c2ccc(N3CCOCC3)cc2)cc2ncccc12

>  <% INHB SYK at 1 μM [%]>
43.3

$$$$
>  <COMPOUND>
OCCCCOc1nc(-c2ccc(N3CCOCC3)cc2)cc2ncccc12

>  <% INHB SYK at 1 μM [%]>
94.4

$$$$

[A] CCOc1nc(-c2ccc(N3CCOCC3)cc2)cc2ncccc12
[B] c1ccc(-c2nc(-c3ccc(N4CCOCC4)cc3)cc3ncccc23)cc1
Input: Could you point out whether the larger % INHB SYK at 1 μM belongs to A or to B ? Kindly state the label of the option you pick.
Output: A

###

# ASSAYED TARGET: Recombinant human Syk (GST-Syk kinase fusion protein) (Homo sapiens, UniProt P43405)
# Construct: made in house
# PROTOCOL TEXT: Syk Kinase Test (Kinase Glo Luminescence Kinase test)
# Assay type: biochemical
# SETTINGS: 1 μM test substance; negative control (no kinase) = 100% inhibition, positive control (no test substance) = 0% inhibition
MEASURED PARAMETER: % INHB SYK at 1 μM (%)

>  <COMPOUND>
OCC#Cc1nc(-c2ccc(N3CCOCC3)cc2)cc2ncccc12

>  <UNIT TEXT>
%

>  <READOUT VALUE>
87.1

$$$$
>  <COMPOUND>
CN[C@H]1CC[C@@H](Nc2nc(-c3ccc(N4CCOCC4)cc3)cc3ncccc23)CC1

>  <UNIT TEXT>
%

>  <READOUT VALUE>
86.7

$$$$
>  <COMPOUND>
COc1cc(-c2cc3ncccc3c(NC[C@@H]3CCNC3)n2)ccc1N1CCOCC1

>  <UNIT TEXT>
%

>  <READOUT VALUE>
98.6

$$$$
>  <COMPOUND>
c1cnc2cc(-c3ccc(N4CCOCC4)cc3)nc(Nc3ccc4cn[nH]c4c3)c2c1

>  <UNIT TEXT>
%

>  <READOUT VALUE>
82.0

$$$$
>  <COMPOUND>
NC(=O)C1CCN(c2nc(-c3ccc(N4CCOCC4)cc3)cc3ncccc23)C1 (centres unmarked)

>  <UNIT TEXT>
%

>  <READOUT VALUE>
95.3

$$$$
>  <COMPOUND>
c1cnc2cc(-c3ccc(N4CCOCC4)cc3)nc(NCC3CNCCO3)c2c1 (centres unmarked)

>  <UNIT TEXT>
%

>  <READOUT VALUE>
85.4

$$$$
>  <COMPOUND>
NC(=O)N1CCN(c2nc(-c3ccc(N4CCOCC4)cc3)cc3ncccc23)CC1

>  <UNIT TEXT>
%

>  <READOUT VALUE>
86.8

$$$$
>  <COMPOUND>
O[C@H]1CC[C@@H](Nc2nc(-c3ccc(N4CCOCC4)cc3)cc3ncccc23)CC1

>  <UNIT TEXT>
%

>  <READOUT VALUE>
76.8

$$$$
